Origin of values: ChEMBL document CHEMBL6083285

# assay-procedure: Oral bioavailability in male Sprague-Dawley rat at 10 mg/kg measured after 24 hrs by LC-MS analysis
# Assay type: ADME, organism-based
# particulars: in vivo
# Lookup of reported bioavailability keyed by entry
# unit: % | format: bare number

CC(C)c1c(F)ccc2c1CC(=O)NS(=O)(=O)c1cn(nc1F)C(C)(C)COc1cc-2ccn1	36

Proceed to the following item.
Item: CC(C)c1cccc2c1CC(=O)NS(=O)(=O)c1cnn(c1)C1(CCOCC1)COc1cc-2ccn1 | bioavailability: 28

====

# assay-procedure: Drug exposure in mouse blood measured after 2.5 hrs
# Assay type: ADME, tissue-based
# particulars: read-out: Ct
measured-endpoint: concentration at 2.5 h (nM)
Expressed in nM, but write only the number.

Consider CC(C)c1cccc2c1CC(=O)NS(=O)(=O)c1cnn(c1)C1(CCOCC1)COc1cc-2ccn1 . Its measured concentration at 2.5 h is 276

====

# assay-procedure: Protein binding in mouse plasma assessed as unbound fraction at 5 uM incubated for 4 hrs by UPLC-MS analysis
# Assay type: ADME, cell-free
measured-endpoint: fraction unbound at 4 h, 5 µM
Kindly provide the number alone.

Some entries whose results are on file:
CC(C)c1cccc2c1CC(=O)NS(=O)(=O)c1cnn(c1)C1(CCOCC1)COc1cc-2ccn1	0.123
COc1cc(-c2cc(F)cc(C(C)C)c2CC(=O)NS(=O)(=O)c2cnn(C3CC3)c2)ccn1	0.017
CC(C)c1cc(F)cc2c1CC(=O)NS(=O)(=O)c1cnn(c1)C(C)(C)COc1cc-2ccn1	0.086

Record CC(C)c1c(F)ccc2c1CC(=O)NS(=O)(=O)c1cn(nc1F)C(C)(C)COc1cc-2ccn1 , field fraction unbound at 4 h, 5 µM: 0.0126

====

# assay-procedure: Metabolic stability in pooled human liver microsomes assessed as intrinsic clearance at 1 uM measured upto 45 mins in presence of NADPH by UPLC-MS/MS analysis
# Assay type: ADME, Microsome
# particulars: read-out: CLH
measured-endpoint: microsomal CLint at 1 µM (µL/min/mg)
Give just the number in µL/min/mg; leave the unit off.

COc1cc(-c2ccc3c(c2NC(=O)NS(=O)(=O)c2ccn(C(C)C)n2)CCC3)ccn1	12

Please turn your attention to the following entry.
Given item COc1cc(-c2ccc3c(c2NC(=O)NS(=O)(=O)c2cnn(C(C)C)c2)CCC3)ccn1 , the value recorded as its microsomal CLint at 1 µM is 45

====

# Tested on: BCRP
# assay-procedure: Permeability in MDCK-II-BCRP cells at 5 uM incubated for 2 hrs by LC-MS/MS analysis
# Assay type: ADME, cell-based, Canis lupus familiaris
# particulars: dog, read-out: permeability
measured-endpoint: Papp at 2 h, 5 µM (×10⁻⁶ cm/s)
State just the number; it will be interpreted in ×10⁻⁶ cm/s.

COc1cc(-c2cc(F)cc(C(C)C)c2CC(=O)NS(=O)(=O)c2cnn(C3CC3)c2)ccn1	5.3

For CC(C)c1cc(F)cc2c1CC(=O)NS(=O)(=O)c1cnn(c1)C(C)(C)COc1cc-2ccn1 on BCRP, measured Papp at 2 h, 5 µM was 10.9

====

# assay-procedure: Lipophilicity, logD of compound at pH 7.4
# Format: physicochemical
# particulars: buffer
measured-endpoint: logD

The following molecules have reported results that may help.
CC(C)c1c(F)ccc2c1CC(=O)NS(=O)(=O)c1cn(nc1F)C(C)(C)COc1cc-2ccn1	1.02
CC(C)n1ccc(S(=O)(=O)NC(=O)Nc2c(-c3ccnc(OC4CCN(C)CC4)c3)ccc3c2CCC3)n1	-0.02

Lab note: measured logD of CC(C)c1cc(F)cc2c1CC(=O)NS(=O)(=O)c1cnn(c1)C(C)(C)COc1cc-2ccn1 was 1.5

Quick note, logD for CC(C)n1ccc(S(=O)(=O)NC(=O)Nc2c(-c3ccnc(OC4CCN(C)C4)c3)ccc3c2CCC3)n1 (centres undefined) landed at -0.5

Please fill in: logD reported for COc1cc(-c2cc(F)cc(C(C)C)c2CC(=O)NS(=O)(=O)c2cnn(C3CC3)c2)ccn1 = 0.9

According to the records, this molecule CC(C)n1ccc(S(=O)(=O)NC(=O)Nc2c(-c3ccnc(OC4CCOCC4)c3)ccc3c2CCC3)n1 displays logD of 0.35

Entry under test: CC(C)n1ccc(S(=O)(=O)NC(=O)Nc2c(-c3ccnc(Oc4ccccc4)c3)ccc3c2CCC3)n1 . Its logD was 1.2

Reported logD for CC(C)c1cccc2c1CC(=O)NS(=O)(=O)c1cnn(c1)C1(CCOCC1)COc1cc-2ccn1 was 0.44

For reference, reported logD for COc1cc(-c2ccc3c(c2NC(=O)NS(=O)(=O)c2ccn(C(C)C)n2)CCC3)ccn1 stands at 0.09
